Collected from the literature: IC50 of various molecules toward Epidermal growth factor receptor (Homo sapiens, UniProt P00533).

Fc1cc(-c2nc3ccccc3s2)ccc1Nc1ncnc2ccsc12	> 10 µM
c1cncc(-c2ccnc(Nc3cccc(-n4ccnc4)c3)n2)c1	> 100 µM

Task item: Recorded IC50 for `Nc1nc(Nc2cccc(C(F)(F)F)c2)c2cc(CCc3ccccc3)[nH]c2n1` with Epidermal growth factor receptor (Homo sapiens, UniProt P00533), please?
Reply: > 200 µM

====

pIC50: −log10 of the molar value.
Collected from the literature: pIC50 of various compounds toward Epidermal growth factor receptor (Homo sapiens).

CCOC(=O)c1ccc(Nc2ncc3cc(-c4c(Cl)cccc4Cl)c(=O)n(C)c3n2)cc1	< 4.30
COc1ccc(C)c(Nc2c(C#N)cnc3cc4[nH]c(NCCN5CCOCC5)nc4cc23)c1	< 6.00
Cn1ncc([N+](=O)[O-])c1C[N+](C)(C)C/C=C/C(=O)Nc1ccc2ncnc(Nc3cccc(Br)c3)c2c1	9.25 to 9.66
O=C1Nc2cc(F)ccc2/C1=C/c1ccc[nH]1	< 4.00

Task item: Recorded pIC50 for `O=C1Nc2ccccc2/C1=C\c1ccco1` with Epidermal growth factor receptor (Homo sapiens), please?
Reply: < 4.00

Task item: Recorded pIC50 for `O=C1Nc2ccccc2/C1=C/c1ccc(N2CCCCC2)cc1` with Epidermal growth factor receptor (Homo sapiens), please?
Reply: < 4.00

Task item: Recorded pIC50 for `COc1cc(-c2nc(CN3CCC(C)CC3)cs2)ccc1Nc1ncc(Cl)c(Nc2ccccc2S(=O)(=O)C(C)C)n1` with Epidermal growth factor receptor (Homo sapiens), please?
Reply: < 6.00

Task item: Recorded pIC50 for `COc1cc(-c2nc3ccccc3s2)ccc1Nc1ncnc2cc(OC)c(OCCCN3CCN(C)CC3)cc12` with Epidermal growth factor receptor (Homo sapiens), please?
Reply: < 5.00

Task item: Recorded pIC50 for `COc1cc(N2CCN(C)CC2)ccc1Nc1ncc(Cl)c(Oc2cccc(COc3no[n+]([O-])c3S(=O)(=O)c3ccccc3)c2)n1` with Epidermal growth factor receptor (Homo sapiens), please?
Reply: 6.89

Task item: Recorded pIC50 for `O=C(Nc1ccncc1)Nc1cc(-c2cncnc2)ccc1OC(F)(F)F` with Epidermal growth factor receptor (Homo sapiens), please?
Reply: 7.74

====

Collected from the literature: pIC50 of various compounds toward Epidermal growth factor receptor (Homo sapiens, UniProt P00533).
pIC50: −log10 of the molar value.

Task item: Recorded pIC50 for `Nc1ncnc2c1c(-c1cccc(OC[C@@H]3CCCO3)c1)cn2[C@H]1C[C@@H](CN2CCC2)C1` with Epidermal growth factor receptor (Homo sapiens, UniProt P00533), please?
Reply: < 5.00

Task item: Recorded pIC50 for `Cc1cc(N2CCN(C(c3ccccc3)c3ccccc3)CC2)nc2ccc(Cl)cc12` with Epidermal growth factor receptor (Homo sapiens, UniProt P00533), please?
Reply: 8.10

Task item: Recorded pIC50 for `C=CC(=O)Nc1ccccc1-c1nc(Nc2cc[nH]n2)c2ccccc2n1` with Epidermal growth factor receptor (Homo sapiens, UniProt P00533), please?
Reply: < 5.00

Task item: Recorded pIC50 for `C#Cc1cccc(Nc2ncnc3cc(OC)c(OC)cc23)c1` with Epidermal growth factor receptor (Homo sapiens, UniProt P00533), please?
Reply: > 9.00

====

Collected from the literature: IC50 of various compounds toward Epidermal growth factor receptor (Homo sapiens).

Cc1cc(Nc2cc(N3CCN(C)CC3)nc(Oc3ccccc3[N+](=O)[O-])n2)n[nH]1	> 10 µM
COc1cc2c(Nc3ccc(NC(=O)c4ccc(Cl)cc4)cc3)ncnc2cc1OCc1ccccc1	> 10 µM

Proceeding to the next compound to report its IC50.
Task item: Recorded IC50 for `Nc1ncnc2nn3ccccc3c12` with Epidermal growth factor receptor (Homo sapiens), please?
Reply: > 10 µM
